Reported values of self-cleavage for individual entries
B1: CPEB3 Ribozyme (parent)
chain: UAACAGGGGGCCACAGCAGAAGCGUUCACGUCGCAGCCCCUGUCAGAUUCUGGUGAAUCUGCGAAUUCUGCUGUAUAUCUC

Variants of: B1
procedure-details: self-cleavage, relative activity (ratio to wild type); higher = more cleavage; in vitro, sequencing
Could you respond with only the numeric value?

U1A A47G: 1.01
C12U G24C: 0.16
C62A A77G: 0.24
G9A G52C: 0.13
A5G C50U: 0.5
U31A G46U: 0.12
G30C A65U: 0.3
G16U A56G: 0.28
A2G U26C: 0.4
A47G U67C: 0.35

// next entry
Q) Sample U51C C62A — what was its self-cleavage?
A) 0.31
